Test system: K4 kissing-loop RNA reporter;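 also: bound reporter read as fluorescence of individual clusters on recovered sequencing chips by microscopy, with normalized cluster intensities fitted with a binding model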
Experiment Summary: apparent KD of K4 kissing-loop reporter; higher = weaker reporter binding
Conditions Used: Eterna round: R107; input ligand: none
Recorded Metric: apparent KD of K4 kissing-loop reporter
Units required after the number.

Sequence Content	apparent KD of K4 kissing-loop reporter
ACCAUUUUACCGGCAGUAGUGAUGUUACUCCGAGGACCGGUACGGCCGCCACUCGCGAACGUAGGGUCGCGCACUCAAAGAGUGC	106 nM
UAGAGGAGACUCUAAUUCCUUAAGUCCGAAGGAGCGACCCAAUGGUCAGGUAGGUCGCGGACAAUCCUAGUGAUGUUAGGAUCUG [Arg A SS t5a]	160 nM
AAGGGCGAGGUAACGUGGAUAUCUCGUCGCAAGGAUAUCUGGAAACAGAGAAGGUGCUACAUUACCGGCAGUGAUGUUGCUGACC	573 nM

stdin: Give recorded apparent KD of K4 kissing-loop reporter. AGACUACCUACACUGUCAAUAGACAGUGACUAGGAUAUGCUGAUAAGCAGAAGGAGUGAUGUUCCUGGUAGUCAAAUAAAAUAAU [FmnAX 12 #SwitchBubble #StaticStem #K4Early]
stdout: 311 nM

stdin: Indicate its recorded apparent KD of K4 kissing-loop reporter; the sequence in question is UGAACUUUUGCUAGGAACCGUCUAGCUCUUUAGGAUAUCUGGAAACAGAGAAGGAAAGACCUACAGAGUGAUGUUCUGCGUUCAU
stdout: 316 nM

stdin: Indicate its recorded apparent KD of K4 kissing-loop reporter; the sequence in question is GUAUCAGUGAUGUUGAUAGGCGAGCGGGAUACCAGCCAAGACUCAGGCCCUUGGCAGCCCACAUAUCCCACGUAGAUAGUAGCUC [Same State - Theophylline A (Freestyle 16)]
stdout: 128 nM

====

Test system: MS2 coat protein
Experiment Summary: apparent KD of MS2 coat protein; designed switch direction (-1 OFF switch, 1 ON switch): -1; higher = weaker reporter binding
Conditions Used: input ligand: microRNA oligo, concentration not stated
Values of apparent KD of MS2 coat protein greater than or equal to 30 nM map to yes (1); values below map to no (0).

Solved entries (count: 4):
Sequence Content	Assigned Label
CCACGUCCGUACGUAUACUUGUCUCCUGAAAGAAAGGGCACAUGAGGAUCACCCAUGUUUUUGCUCGUCUUAUGAGC [JR_Sensorv2_tov2_Sub714] (Eterna round: R96, puzzle: Sensor v2, turn-off variant 2)	yes (1)
AUUAAUGUCAAAGGAUAUCAGCACGUUUAGUGCUGAGAAGGUUGAACAUGAGGAUCACCCAUGUAGAUCAUUAAUAAUUUAAUU [ENG1/10-B1] (Eterna round: R96, puzzle: Exclusion NG 1)	no (0)
GCAGCUAAUGCAGGAUAUCAGCACGUGUAGUGCUGAGAAGGGCACAUGAGGAUCACCCAUGUGAUCAAUUAAUAUUAAUGCUGC [ENG1/11-B3] (Eterna round: R96, puzzle: Exclusion NG 1)	no (0)
GAAAAGGUAGGAUAUACGAAAAAAAAGGGUAGAAAAAAAAAACAUGAGGAUCACCCAUGUAGAAGGACCAAAAG [salish99_ex2_r3_059] (Eterna round: R96, puzzle: Exclusion 2)	yes (1)

stdin: Kindly determine if apparent KD of MS2 coat protein recorded for GGAAAACAUGAGGAUCACCCAUGUAAGGAUAUGCAAAAGGAUAUAGAAGGAAAAAAAAGCAGAAGGUACAAAGG [salish99-ex1-21] (Eterna round: R96, puzzle: Exclusion 1) is above or exactly 30 nM.
stdout: yes (1)

stdin: Confirm if apparent KD of MS2 coat protein reported for the sequence AGUACUAUCACGAAAGUGAUAGUACAAUAAGCUAGUGAAACAUGAGGAUCACCCAUGUCCUCAUUAGCUCGUCUUAU [JL turnoff v2 78] (Eterna round: R96, puzzle: Sensor v2, turn-off variant 2) is 30 nM or above.
stdout: yes (1)

stdin: Identify whether the reported apparent KD of MS2 coat protein of the following sequence is 30 nM or greater: UUAAUUCUGAUUCUUGAAAUACAUGAGGAUCACCCAUGUUCACAGGAUAUUGAUUAUGUUAGUAACAAGAAGGGUGUAACAUAU [JR_ExcNG3_Sub037] (Eterna round: R96, puzzle: Exclusion NG 3)
stdout: no (0)

stdin: Reported apparent KD of MS2 coat protein at or above 30 nM? AGCUGUGGCCGAGGAUAUACACAUGAGGAUCACCCAUGUAGGUGCGGAUACUCGCACCAAUAAGUGUAGAAGGCGGUCUCAGCA [Eli eng2 - 057] (Eterna round: R96, puzzle: Exclusion NG 2)
stdout: no (0)

stdin: Kindly determine if apparent KD of MS2 coat protein recorded for UUUGUUUAUGUAGGAUAUGCCUGGCGUGCCUUUGCAGAAGGACAUGAGGAUCACCCAUGUAUUGCGGUCUGCGUUCAGAUCGCC [salish99_ExNG1_r4_036] (Eterna round: R96, puzzle: Exclusion NG 1) is above or exactly 30 nM.
stdout: no (0)
